# assay protocol: NCI Yeast Anticancer Drug Screen. Data for the cln2 rad14 strain (AID 165);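 further: 0% = growth equal to vehicle treated cultures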
# measurement parameters: S. cerevisiae cln2 rad14 strain, at 5.0 µM (retest, dose inferred, filed as 0.5), stronger effect = higher value
# Description: Growth inhibition of yeast strains with defined genetic alterations is measured as a screen for potential anti-cancer activity. Selected strains with alterations in DNA damage repair or cell cycle control were exposed to compounds and growth inhibition was measured relative to vehicle treated controls. The strain used in this assay is cln2 rad14
This is part of a sample that, as a whole, favours compounds with a hit. Of some 79,000 tested, about 15% had one in any assay.
growth inhibition listing for selected compounds.
quantity name: growth inhibition (%)

1) COc1ccc2c(c1)CC[C@@H]1C2CC[C@]2(C)OC(=O)CCC12 (some centres not stated) ... -4
2) O=[N+]([O-])c1cccc(S(=O)(=O)Nc2cccc3ccccc23)c1 ... 4
3) COC(=O)/C(C#N)=C1\NC(=O)CC(c2ccccc2)C1C#N (configuration not stated) ... 5
4) O=C(Nc1ccccc1C(=O)O)c1ccccc1 ... -2
5) COC(=O)[C@@]12OC[C@]34[C@H]([C@@H](O)[C@@H]1O)[C@@]1(C)CC(=O)C(OC(=O)CC(=O)OC5=C(C)[C@@H]6C[C@H]7OC(=O)[C@H](OC(=O)/C=C(\C)C(C)C)[C@H]8[C@]9(C(=O)OC)OC[C@]78[C@H]([C@@H](O)[C@@H]9O)[C@@]6(C)CC5=O)=C(C)[C@@H]1C[C@H]3OC(=O)[C@H](OC(=O)/C=C(\C)C(C)C)[C@@H]24 ... 49
6) O=C1c2cc([N+](=O)[O-])cc3cc([N+](=O)[O-])cc(c23)C(=O)N1CCNCCN1C(=O)c2cc([N+](=O)[O-])cc3cc([N+](=O)[O-])cc(c23)C1=O ... 62
7) C1CCC(CCNCCC2CCCCC2)CC1 ... -15

---

# assay protocol: NCI Yeast Anticancer Drug Screen. Data for the mlh1 rad18 strain (AID 175)
# measurement parameters: S. cerevisiae mlh1 rad18 strain growth inhibition; at 5.0 µM (retest, dose inferred, filed as 0.5); stronger effect = higher value
Compounds without any hit were thinned out: in the full panel of roughly 79,000, 15% have a hit.
growth inhibition listing for selected compounds.
quantity name: growth inhibition (%)

1) CC1OC(Oc2c(-c3ccc(O)c(O)c3O)oc3cc(O)ccc3c2=O)C(O)C(O)C1O (stereo not drawn) ... -5
2) CCCCCCCCCCCCCCCCCCOC(=O)C(N)CCCCN (stereo not drawn) ... -5
3) Cc1[nH]nc(C(=O)N/N=C/c2ccccc2Cl)c1N=NN(C)C ... 72
4) Cc1nn(CCO)c(=O)c(C#N)c1C ... 5
5) CCOC(=O)Cc1csc2[n+]1C(=O)/C(=C\c1cccc(Cl)c1Cl)S2 ... 14
6) CC1CCCC(C(c2c[nH]c3ccccc23)c2c[nH]c3ccccc23)C1=O (stereo not drawn) ... -5
7) COc1ccccc1NC(=O)Oc1ccc(C(C)(CCC(=O)O)c2ccc(OC(=O)Nc3ccccc3OC)cc2)cc1 ... -26
8) CCN(CC)CCO/N=C1\CC[C@H]2[C@@H]3CCc4cc(OC)ccc4[C@H]3CC[C@]12C ... 34
9) CC(Cl)C(=O)Nc1cc2ccccc2oc1=O (stereo not drawn) ... -21
10) COC(=O)C1=C(C(=O)OC)C2C(C)=CC(C)=CN2C(C(=O)OC)=C1C(=O)OC (stereo not drawn) ... -4
11) CC(C=O)=C(c1ccccc1)c1ccccc1 ... -115
12) CC1CCN(CCCOC(=O)c2ccccc2)CC1 ... 52
13) OCC1(O)OCC(O)C(O)C1O (stereo not drawn) ... -1
14) COc1ccc(C2=C(Cl)C(=O)N(c3ccccc3C)C(=O)C2(Cl)Cl)cc1 ... 70
15) O=C(Nc1ccccc1C(=O)O)c1ccccc1 ... -7
16) CC1=CC(C2/C(=N/O)C=C(C)CC2(C)C)C(O)C(C)(C)C1 (stereo not drawn) ... -3
17) CN(NC1OC(=O)c2ccccc21)c1ccc(C(F)(F)F)cc1[N+](=O)[O-] (stereo not drawn) ... 47
18) O=[N+]([O-])c1ccccc1N=Nc1c(O)[nH]c2ccc(S(=O)(=O)O)cc12 ... 90
19) Clc1ccccc1N1CCN(c2c3c(nc4ccccc24)CCCCC3)CC1 ... 42
20) OCCN=C1c2ccccc2C2C(c3ccccc31)C1c3ccccc3C(=NCCO)c3ccccc3C21 (stereo not drawn) ... 3
21) CC/C(=N\OC(=O)Nc1ccccc1)c1ccc(OC(=O)Nc2ccccc2)cc1 ... 2
22) O=C1c2ccc(O)cc2C(=O)c2c1ccc(O)c2O ... 45
23) O=C(/C=N/O)Nc1ccc(Cl)c(I)c1 ... -24

---

# assay protocol: NCI Yeast Anticancer Drug Screen. Data for the rad50 strain (AID 155);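 further: 0% = growth of vehicle-only cultures of the same strain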
# measurement parameters: S. cerevisiae rad50 strain growth inhibition; at 50.0 µM; stronger effect = higher value
About 79,000 compounds went through this panel and 15% of them were active in at least one assay; those are over-represented in the sample as a whole. Where a SMILES comes first, the peptide text is derived from it. [ ]: non-standard residue; d: D form. The star is where a group is joined. mTyr = N[CH](Cc1cccc(O)c1)C(=O)O; Cbz = O=C(OCc1ccccc1)*; OBn = c1ccc(CO*)cc1
Use met when the recorded growth inhibition is no lower than 90%; use not met when it is lower.

1) Cc1ccc(N=C2SC(=S)N(CCC[N+](C)(C)C)C2=Nc2ccc(C)cc2)cc1 ... met
2) COc1ccc2c(c1)CC[C@@H]1C2CC[C@]2(C)OC(=O)CCC12 (stereo not given in full) ... not met
3) COc1ccc(C2C3=C(CCCC3=O)Oc3cc4c(cc32)OCO4)c(OC)c1 (stereo not given) ... not met
4) O=c1c(-c2ccccc2)c1-c1ccccc1 ... met
5) COc1ccc2c(c1)S(=O)(=O)C(c1ccccc1)=CC2=O ... met
6) COC(=O)C(Cc1cccc(O)c1)NC(=O)C(CC(=O)OCc1ccccc1)NC(=O)OCc1ccccc1 (stereo not given) (Cbz-Asp(OBn)-[mTyr]-OMe; configuration not given here) ... not met
7) CCc1cc(CC)c(-c2ccco2)c(COC(=O)NC)c1 ... met
8) O=C(NCCc1c(-c2ccccc2)[nH]c2ccccc12)C(F)(F)C(F)(F)F ... not met

---

# assay protocol: NCI Yeast Anticancer Drug Screen. Data for the mlh1 rad18 strain (AID 175)
# measurement parameters: S. cerevisiae mlh1 rad18 strain growth inhibition; at 50.0 µM; stronger effect = higher value
Compounds without any hit were thinned out: in the full panel of roughly 79,000, 15% have a hit.
Use rule met when the recorded growth inhibition is no lower than 80%; use rule not met when it is lower.

1) O=[N+]([O-])c1ccc(/C=N\OCc2cscn2)cc1 ... rule not met
2) C=CS(=O)(=O)Cc1ccc(Cl)cc1 ... rule met
3) NC(=O)SCC(=O)Nc1ccccc1 ... rule met
4) O=[N+]([O-])c1ccc(Sc2ccc([N+](=O)[O-])o2)cc1 ... rule not met
5) COC(=O)/N=C/CCC(O)NC(=O)OC (centres undefined) ... rule not met
6) COc1ccc2c(Cc3ccccc3)c3[n+](cc2c1OC)CCc1cc2c(cc1-3)OCO2 ... rule met
7) CC1(C)[C@H]2CC[C@]1(C)[C@H](OC(=O)NNC(=O)O[C@@H]1C[C@@H]3CC[C@@]1(C)C3(C)C)C2 ... rule not met
8) NCCC1=CCCCC1 ... rule met
9) Cc1ccc(N=Nc2sc(N)nc2C)cc1C ... rule met
10) NCc1ccccc1-c1c2nc(c(-c3ccccc3CN)c3ccc([nH]3)c(-c3ccccc3CN)c3nc(c(-c4ccccc4CN)c4ccc1[nH]4)C=C3)C=C2 ... rule not met
11) COC(=O)c1cccc2c1C(=O)c1ccccc1-2 ... rule not met
12) c1ccc(NNc2ccc3ccccc3n2)cc1 ... rule not met
13) O=C(CC(O)(C(F)(F)Cl)C(F)(F)Cl)CC(O)(C(F)(F)Cl)C(F)(F)Cl ... rule met
14) O=C(O)Cc1cccc2c(=O)c3cccc([N+](=O)[O-])c3[nH]c12 ... rule not met
15) O=S(=O)(c1ccc2c(c1)CCCN2)N1CCC[C@H]2CCCC[C@@H]21 ... rule met
16) COc1ccc2ccccc2c1Cc1c(OC)ccc2ccccc12 ... rule not met
17) O=C(Cc1c[nH]c2ccccc12)N/N=C/c1ccc(Cl)cc1[N+](=O)[O-] ... rule not met
18) [C-]#[N+]C(C)(c1ccccc1)c1ccccc1 ... rule met
19) CN1C/C(=C\c2ccc(Cl)cc2)C(=O)/C(=C/c2ccc(Cl)cc2)C1 ... rule met
20) O=C1c2ccc(S(=O)(=O)O)cc2C(=O)c2ccc(S(=O)(=O)O)cc21 ... rule not met

---

growth inhibition listing for selected compounds.
# assay protocol: NCI Yeast Anticancer Drug Screen. Data for the rad50 strain (AID 155);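 further: 0% = growth of vehicle-only cultures of the same strain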
# measurement parameters: S. cerevisiae rad50 strain growth inhibition; at 5.0 µM (retest, dose inferred, filed as 0.5); stronger effect = higher value
Compounds without any hit were thinned out: in the full panel of roughly 79,000, 15% have a hit.
quantity name: growth inhibition (%)

1) CC(CCC(=O)O)[C@H]1CCC2[C@H]3C(CC[C@@]21C)[C@@]1(C)CCC(O)C[C@H]1C[C@@H]3O (some centres undefined) ... -11
2) CN(C)c1ccc(/C=C/c2nc3ccccc3[nH]2)cc1 ... -2
3) CC(NC(=O)OC(C)(C)C)C(=O)NC(Cc1ccccc1)C(=O)NCC(=O)Oc1c(Cl)c(Cl)c(Cl)c(Cl)c1Cl (centres undefined) ... 30
4) O=C1c2c(F)c(F)c(F)c(F)c2SC2=NCCN12 ... 2
5) c1ccc2c(c1)Nc1ccc3ccccc3c1S2 ... 3
6) NNc1cc(Cl)ccc1Cl ... 73
7) Cc1cccc(-c2csc(N)n2)c1 ... 0
8) O=C1/C(=C/c2cccc(O)c2)SC(=S)N1/C=C\c1nc2ccccc2[nH]c1=O ... 8
9) [O-]c1c2cc(-[n+]3c(-c4ccccc4)cc(-c4ccccc4)cc3-c3ccccc3)cc1CO[C@@H](c1ccccc1)[C@H](c1ccccc1)OCc1cccc(n1)CO[C@@H](c1ccccc1)[C@H](c1ccccc1)OC2 ... 98
